Test: Cmax in male Sprague-Dawley rat at 2 mg/kg, iv measured upto 24 hrs by LC-MS/MS analysis
Type: ADME, organism-based
Settings: in vivo
Measurement type: Cmax (ng/mL)
# number only, unit ng/mL dropped from output

Dear colleague, I am looking for the recorded Cmax of the following compound: CN(C(=O)[C@H](Cc1cc(F)cc(F)c1)NC(=O)Cc1c[nH]c2ccc(O)cc12)c1ccc2scnc2c1
18.8

---

Target: Structural capsid protein (Human immunodeficiency virus 1, UniProt Q76129)
Sequence (Q76129 whole entry): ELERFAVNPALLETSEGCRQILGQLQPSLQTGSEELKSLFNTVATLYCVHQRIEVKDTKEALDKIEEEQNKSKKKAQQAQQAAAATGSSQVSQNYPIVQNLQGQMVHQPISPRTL
Assay: Binding affinity to hexameric HIV-1 NL4.3 capsid protein assessed as dissociation constant by SPR assay
Measurement type: pKd
Please report pKd as the negative decimal logarithm of the molar concentration, giving only the number.

{"Compound string": "CN(C(=O)[C@H](Cc1cc(F)cc(F)c1)NC(=O)Cc1c[nH]c2cc(F)c(F)cc12)c1ccc2scnc2c1", "Obs value": 6.52}
{"Compound string": "CN(C(=O)[C@H](Cc1cc(F)cc(F)c1)NC(=O)Cc1c[nH]c2ccc(O)cc12)c1ccc2scnc2c1", "Obs value": 7.61}
{"Compound string": "CN(C(=O)[C@H](Cc1cc(F)cc(F)c1)NC(=O)Cc1c[nH]c2ccc(N)cc12)c1ccc2scnc2c1", "Obs value": 7.02}

Now, please, on to the next compound.
Dear colleague, I am looking for the recorded pKd of the following compound: CN(C(=O)[C@H](Cc1cc(F)cc(F)c1)NC(=O)Cc1c[nH]c2ccc([N+](=O)[O-])cc12)c1ccc2scnc2c1
7.06

---

System: Human immunodeficiency virus 1
Assay: Antiviral activity against pseudotyped HIV-1 expressing luciferase-reporter transfected in HEK293T cells assessed as viral inhibition at late stage incubated for 48 hrs by Single-round infection assay
Assay type: functional, organism-based
The source made the active and inactive calls. The calls are words filed in the database; no cut-off is given here.
Measurement type: Activity

{"Compound string": "CN(C(=O)[C@H](Cc1cc(F)cc(F)c1)NC(=O)Cc1c[nH]c2ccc(O)cc12)c1ccc2scnc2c1", "Measurement type": "Activity", "Obs value": "Active"}
{"Compound string": "CN(C(=O)[C@H](Cc1cc(F)cc(F)c1)NC(=O)Cc1c[nH]c2ccc([N+](=O)[O-])cc12)c1ccc2scnc2c1", "Measurement type": "Activity", "Obs value": "Active"}
{"Compound string": "CN(C(=O)[C@H](Cc1cc(F)cc(F)c1)NC(=O)Cc1c[nH]c2cc(F)c(F)cc12)c1ccc2scnc2c1", "Measurement type": "Activity", "Obs value": "Active"}
{"Compound string": "CN(C(=O)[C@H](Cc1cc(F)cc(F)c1)NC(=O)Cc1c[nH]c2ccc(N)cc12)c1ccc2scnc2c1", "Measurement type": "Activity", "Obs value": "Active"}

---

Assay: AUC(0 to t) in male Sprague-Dawley rat at 2 mg/kg, iv measured upto 24 hrs by LC-MS/MS analysis
Assay type: ADME, organism-based
Settings: in vivo
Measurement type: AUC(0-t) at 24 h (ng·h/mL)
# number only, unit ng·h/mL dropped from output

Dear colleague, I am looking for the recorded AUC(0-t) at 24 h of the following molecule: CN(C(=O)[C@H](Cc1cc(F)cc(F)c1)NC(=O)Cc1c[nH]c2ccc(O)cc12)c1ccc2scnc2c1
5.53

---

Test: MRT(0 to infinity) in male Sprague-Dawley at 10 mg/kg, sc measured upto 24 hrs by LC-MS/MS analysis
Assay type: ADME, organism-based
Settings: rat, in vivo
Measurement type: MRT inf (h)
# number only, unit h dropped from output

Dear colleague, I am looking for the recorded MRT inf of the following molecule: CN(C(=O)[C@H](Cc1cc(F)cc(F)c1)NC(=O)Cc1c[nH]c2ccc(O)cc12)c1ccc2scnc2c1
5.85
